- Tested on: Wolbachia pipientis
- Assay Method Text: Anti-Wolbachia Cell-Based Screen
- Assay type: functional
- Parameters: scale not given: in the data most compounds retested in dose-response had high values
- Assay Context: 5 µM
Hit rate of the full screen: of about 48,000 compounds, about 13,000 (27%) showed an effect of 50% or more. This is one part of the list.
Attribute Measured: Percent Effect (%)
// units = %; emit number, no label

Answered examples (10):
| Molecule | Attribute Measured | Experimental Result |
| --- | --- | --- |
| Cc1cc(CC(=O)NC(C)c2ccc(OCC3CC3)c(F)c2)n[nH]1 (configuration not stated) | Percent Effect | -4.858 |
| O=c1[nH]c(CN2CCOC(Cn3cccn3)C2)nc2ccccc12 (configuration not stated) | Percent Effect | 108.3 |
| COCC(=O)N1CCCC(c2nc(N(C)C)ncc2-c2ccccc2)C1 (configuration not stated) | Percent Effect | 96.39 |
| CCn1cnnc1CNC(=O)NC(C)C(C)C (configuration not stated) | Percent Effect | -4.455 |
| COC(=O)CCC(=O)N1CCc2[nH]nc(-c3ccc(F)c(F)c3)c2C1 | Percent Effect | 3.026 |
| COC(C)(C)CC(C)NCc1nncn1C1CCCCC1 (configuration not stated) | Percent Effect | -17.97 |
| CCOc1ccccc1CNC(=O)NCC(c1cnn(C)c1)N(C)C (configuration not stated) | Percent Effect | -20.46 |
| Cc1cnn(CC2CN(Cc3nc4ccccc4c(=O)[nH]3)CCO2)c1 (configuration not stated) | Percent Effect | 128.5 |
| Cc1nc(CN2CCCC2c2ccsc2)nc2ccccc12 (configuration not stated) | Percent Effect | 1.892 |
| O=C(Cc1cccs1)N1CCOC(c2cccc(O)c2)C1 (configuration not stated) | Percent Effect | -7.888 |

// query Item under review: CN(C)C(=O)c1nc(CN2CC(Cc3ccccc3)CC2=O)no1 (configuration not stated) . Reported Percent Effect?
// result 4.683

// query Cool, now CN(C)c1nc(N)nc(CN2CCCC2c2cccs2)n1 (configuration not stated)
// result 99.23

// query Please give the result for CCOc1ccc2nc(CN3CCC(CN)C3)ccc2c1 (configuration not stated) too.
// result 6.34

// query Follow-up entry: Cc1cnn(CC2CCCN2CCc2nc3ccccc3c(=O)[nH]2)c1 (configuration not stated)
// result -0.3603

// query COC(=O)NCC(=O)NC(c1ccc(Cl)cc1)C(F)(F)F (configuration not stated) , same question.
// result -6.665

// query What about this molecule? Cc1nc(C)c(C(=O)N2CCc3[nH]nc(COc4ccccc4)c3C2)s1
// result 5.403

// query Next entry: Cc1noc(C)c1CNC(=O)N1CCC(OCC2CC2)CC1
// result 12.01

// query Next molecule up: COCC(=O)N1C[C@H]2CC[C@@]3(N=C(c4ccccc4)NC3=O)[C@H]2C1
// result -3.823

// query Next entry: CCn1cnnc1CNc1nc(C)nc2scc(CC(C)C)c12
// result 122.4

// query Record: CN1CCO[C@@H]2CN(C(=O)Cc3cccs3)CC[C@@H]2C1.O=C(O)C(F)(F)F
// result 104.2

// query Also Cc1c(NC(C)C(C)C)cccc1C(=O)NCc1nnc(C)n1C (configuration not stated) , if possible.
// result 0.4576

// query Next molecule up: O=C(N1CCOCC1)N1CCc2[nH]nc(COc3cccc(Cl)c3)c2C1
// result 2.718

// query Next up: CCC(C#N)NC(=O)c1ccc(Oc2cccnc2)cc1 (configuration not stated)
// result -3.415

// query Follow-up item: Cc1csc(CNC(=O)N(C)Cc2ccc([S+](C)[O-])cc2)n1 (configuration not stated)
// result -10.57

// query Request: C=C(C)COc1cccc(C(=O)N2CCC3(CCOCC3)CC2)c1
// result 0.8095

// query Repeat with CCC(NC(=O)NCc1nncn1CC)c1ccc(OC)cc1 (configuration not stated)
// result -10.18

// query Repeat for the following molecule: CS(=O)(=O)N1CCO[C@@H]2CN(C(=O)Cc3cccs3)CC[C@@H]2C1
// result 99.33

// query Record: Cc1nnc(CN(C)Cc2ccc(C(=O)Nc3sccc3C#N)cc2)o1
// result 8.936

* * *

- Test system: Wolbachia pipientis
- Assay Method Text: Anti-Wolbachia Cell-Based Screen
- Assay type: functional
- Parameters: scale not given: in the data most compounds retested in dose-response had high values
- Assay Context: 5 µM
Out of some 48,000 compounds screened, about 13,000 (27%) showed an effect of 50% or more. The list shows a part of the results.
Attribute Measured: Percent Effect
Entry format: amount then unit.

Example results:
| Item Smiles | Percent Effect |
| --- | --- |
| CN(Cc1ccncn1)C(=O)C1(Oc2ccc(Cl)cc2)CCNCC1 | -1.2% |
| C[C@@H]1CN(CCOc2ccc(Cl)cc2)CC[C@@]1(O)C1CCOCC1 | 95.64% |

// query # Percent Effect lookup, item CNc1ncc(CN(C)C(=O)CCc2cc3n(n2)CCCNC3)cn1
// result -7.945%

// query Moving on to COc1cc(F)c(CN2CC[C@@](O)(C3CC3)[C@H](C)C2)cc1OC
// result 9.055%

// query Repeat for the following molecule: CN(Cc1ccncn1)C(=O)CCc1[nH]nc2c1CCCC2
// result 105.8%

// query Next record, please: CN(Cc1ccncn1)C(=O)c1cccc(CCC(C)(C)O)c1
// result -19.37%

* * *

- Tested on: Wolbachia pipientis
- Assay Method Text: Anti-Wolbachia Cell-Based Screen
- Format: functional
- Set-up: scale not given: in the data most compounds retested in dose-response had high values
- Assay Context: 5 µM
Among all 48,000 compounds or so, about 13,000 (27%) showed an effect of 50% or more. Some of the results follow.
Listing: Percent Effect of selected molecules
Output spec: scalar in %, unitless text.

Please review the following examples before continuing.
| Molecule | Attribute Measured | Experimental Result |
| --- | --- | --- |
| CCc1c(C)nc(C)nc1N1CCC(NCCSc2nnnn2C)CC1 | Percent Effect | 11.48 |
| CC(C)(C)C(=O)N1CCC(c2nc(O)cc(-c3ccncc3)n2)CC1 | Percent Effect | 112.4 |
| CN1CCC(O)(CNCc2ccc(F)c(C(F)(F)F)c2)CC1 | Percent Effect | -14.25 |
| O=C(c1ccoc1)N1CCc2ncnc(NCc3ccccn3)c2CC1 | Percent Effect | 2.356 |
| CCCn1ncc(C(=O)NC(C)c2c(C)nn(CC)c2C)c1C (stereo not drawn) | Percent Effect | 101.8 |

// query Quick one: Percent Effect of CC(C)C(=O)N1CCC(c2nc(O)cc(-c3ccncc3)n2)CC1 ?
// result -8.577

// query Next up: Cc1nccn1-c1ccc(N2CCC(N[C@H](C)C(C)C)CC2)cc1
// result 17.33

// query Same thing, different molecule: CN(C)C(=O)C1CCC2(CCN(C(=O)Nc3ccccc3)CC2)O1 (stereo not drawn)
// result 111.7

// query // query: Cn1nnc2c1CCN(S(C)(=O)=O)C2COCc1ccccc1 (stereo not drawn)
// result -3.39

// query Consider next the molecule O=C(c1ccccn1)N1CCCC(c2nccn2Cc2ccncc2)C1 (stereo not drawn) in the same way.
// result -10.11

* * *

- Test system: Wolbachia pipientis
- Assay Method Text: Anti-Wolbachia Cell-Based Screen
- Format: functional
- Design: scale not given: in the data most compounds retested in dose-response had high values
- Assay Context: 5 µM
The campaign covered roughly 48,000 compounds. About 13,000 (27%) showed an effect of 50% or more. Some of the results follow.
Attribute Measured: Percent Effect

| Compound | Assay System | Percent Effect |
| --- | --- | --- |
| COc1ccc(CN2C[C@@H]3OCC(=O)N(CC(N)=O)[C@@H]3C2)cc1 | Wolbachia pipientis | -8.877% |
| CN1CCCCC12Cc1ccccc1CN(C(=O)C1CCCC1)C2 (stereo unspecified) | Wolbachia pipientis | 124.9% |
| Cn1cccc1C(=O)NC1CCN(c2ccc(OC(F)(F)F)cc2)CC1 | Wolbachia pipientis | -13.65% |
| Cc1nc(C)n(CC2CCCN2CC(=O)Nc2ccnn2C(C)C)n1 (stereo unspecified) | Wolbachia pipientis | -5.093% |
| CN1CCN(C(=O)C2(S(C)(=O)=O)CCCC2)Cc2ccccc21 | Wolbachia pipientis | -5.505% |

// query What reported Percent Effect corresponds to CN1CCCCC12Cc1ccccc1CN(C(=O)c1ccccc1)C2 (stereo unspecified) on Wolbachia pipientis?
// result 117.9%

// query What about this compound? CS(=O)(=O)N1CCCCC12CCN(C(=O)c1ccccc1)C2 (stereo unspecified)
// result -1.645%

* * *

Listed below: Percent Effect values for each entry.
- System: Wolbachia pipientis
- Assay Method Text: Anti-Wolbachia Cell-Based Screen
- Type: functional
- Set-up: scale not given: in the data most compounds retested in dose-response had high values
- Assay Context: 5 µM
The whole screen tested about 48,000 compounds, of which about 13,000 (27%) showed an effect of 50% or more. The list shows a part of the results.
Please state the figure in %; there is no need to write the unit.

| Molecule | Percent Effect [%] |
| --- | --- |
| CC(=O)N(C)CC(=O)Nc1ccc(C)cc1OCc1ccccc1 | 2.382 |

// query Please look up its Percent Effect: CC(C)NC(=O)CCCn1cnc2ccccc2c1=O
// result 103.3

// query What do we get for Cn1ccnc1SCCNC(=O)Cn1cnc2ccccc2c1=O ?
// result 4.017

// query Also Cc1nnc(N2CCCC(CS(N)(=O)=O)C2)c(C#N)c1C (stereo unspecified) , if possible.
// result -0.6364

// query Thanks! And O=C(CC[C@@H]1CCCN2CCCC[C@H]12)NCCc1nc(O)cc(O)n1 ?
// result -15.21

// query Also check O=C(CCC1CCCO1)NCCN1CCCCC1 (stereo unspecified)
// result -10.6
